Provenance of the data: BindingDB's records for patent US20230312550

MEASURED TARGET: Prolyl endopeptidase FAP (Homo sapiens, UniProt Q12884)
Sequence (Q12884 whole entry): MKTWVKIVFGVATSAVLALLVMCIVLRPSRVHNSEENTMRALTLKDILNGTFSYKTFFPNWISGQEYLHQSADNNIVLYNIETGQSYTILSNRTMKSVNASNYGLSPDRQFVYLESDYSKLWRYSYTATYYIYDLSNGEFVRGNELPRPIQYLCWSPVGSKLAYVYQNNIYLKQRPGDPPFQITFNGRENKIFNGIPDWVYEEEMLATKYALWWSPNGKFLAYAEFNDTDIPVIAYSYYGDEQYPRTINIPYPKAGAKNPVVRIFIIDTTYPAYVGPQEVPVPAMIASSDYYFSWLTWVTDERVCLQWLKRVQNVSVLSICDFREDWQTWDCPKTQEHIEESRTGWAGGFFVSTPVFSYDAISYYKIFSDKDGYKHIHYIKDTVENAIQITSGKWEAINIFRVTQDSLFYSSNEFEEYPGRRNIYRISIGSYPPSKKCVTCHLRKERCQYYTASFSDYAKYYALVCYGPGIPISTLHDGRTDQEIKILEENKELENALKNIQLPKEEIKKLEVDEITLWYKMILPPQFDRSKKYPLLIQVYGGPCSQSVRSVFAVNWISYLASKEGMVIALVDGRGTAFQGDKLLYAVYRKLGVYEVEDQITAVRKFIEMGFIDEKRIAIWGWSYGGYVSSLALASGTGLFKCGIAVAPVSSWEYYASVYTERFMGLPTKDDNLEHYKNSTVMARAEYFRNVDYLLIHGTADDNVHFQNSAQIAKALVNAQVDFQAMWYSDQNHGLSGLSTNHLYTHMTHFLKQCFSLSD
PROTOCOL: hFAP Binding Assay
MEASUREMENT PARAMETERS: read-out: kon (M-1-s-1)
# Lookup of reported kon keyed by entry
ASSAY READOUT: kon (M⁻¹ s⁻¹)

>>> test_value("N#C[C@@H]1CSCN1C(=O)CNC(=O)c1ccnc2ccc(-c3ccc(C(F)F)nc3)cc12 [US20230312550, Example 169]")
"6.2e+06"
>>> test_value("N#C[C@@H]1CSCN1C(=O)CNC(=O)c1ccnc2ccc(N3CC4(CC4)C[C@@H]3CF)cc12 [US20230312550, Example 58]")
"8.8e+09"
>>> test_value("N#C[C@@H]1CSCN1C(=O)CNC(=O)c1ccnc2ccc(N3CC(F)(c4ccccc4)C3)cc12 [US20230312550, Example 182]")
250000
>>> test_value("N#C[C@@H]1CSCN1C(=O)CNC(=O)c1ccnc2ccc(N3CCCC4(CC4)C3)cc12 [US20230312550, Example 46]")
"3e+06"
>>> test_value("N#C[C@@H]1CSCN1C(=O)CNC(=O)c1ccnc2ccc(N3CC(C4CC4)C3)cc12 [US20230312550, Example 145]")
"4.5e+06"
>>> test_value("CCC1(C)CN(c2ccc3nccc(C(=O)NCC(=O)N4CSC[C@H]4C#N)c3c2)C1 [US20230312550, Example 137]")
"9.5e+06"
>>> test_value("CC(C)OC1CCN(c2ccc3nccc(C(=O)NCC(=O)N4CSC[C@H]4C#N)c3c2)CC1 [US20230312550, Example 43]")
"3.2e+06"
>>> test_value("CS(=O)(=O)C[C@H]1CN(c2ccc3nccc(C(=O)NCC(=O)N4CSC[C@H]4C#N)c3c2)CCO1 [US20230312550, Example 92]")
"2.2e+06"
>>> test_value("N#C[C@@H]1CSCN1C(=O)CNC(=O)c1ccnc2ccc(N3CC(CCF)C3)cc12 [US20230312550, Example 146]")
"1.4e+06"
>>> test_value("CC(=O)N1CC2(C1)CN(c1ccc3nccc(C(=O)NCC(=O)N4CSC[C@H]4C#N)c3c1)C2 [US20230312550, Example 184]")
950000
>>> test_value("CCC1(O)CCN(c2ccc3nccc(C(=O)NCC(=O)N4CSC[C@H]4C#N)c3c2)CC1 [US20230312550, Example 189]")
"2.6e+06"
>>> test_value("CC(C)C1CN(c2ccc3nccc(C(=O)NCC(=O)N4CSC[C@H]4C#N)c3c2)C1 [US20230312550, Example 148]")
"6.6e+06"
>>> test_value("Cn1nccc1-c1ccc2nccc(C(=O)NCC(=O)N3CSC[C@H]3C#N)c2c1 [US20230312550, Example 174]")
"1.9e+06"
>>> test_value("CC1(C)OCCN(c2ccc3nccc(C(=O)NCC(=O)N4CSC[C@H]4C#N)c3c2)C1=O [US20230312550, Example 16]")
740000
>>> test_value("N#C[C@@H]1CSCN1C(=O)CNC(=O)c1ccnc2ccc(-c3ccc(F)cn3)cc12 [US20230312550, Example 125]")
"3e+06"
>>> test_value("N#C[C@@H]1CSCN1C(=O)CNC(=O)c1ccnc2ccc(-c3cncnc3)cc12 [US20230312550, Example 127]")
"6e+06"
>>> test_value("CC1(C)CN(c2ccc3nccc(C(=O)NCC(=O)N4CSC[C@H]4C#N)c3c2)C(=O)O1 [US20230312550, Example 13]")
"9.2e+06"
>>> test_value("N#C[C@@H]1CSCN1C(=O)CNC(=O)c1ccnc2ccc(-n3ccnc3-c3ccccc3)cc12 [US20230312550, Example 217]")
"1.8e+06"
>>> test_value("N#C[C@@H]1CSCN1C(=O)CNC(=O)c1ccnc2ccc(N3CCC(C(F)(F)F)CC3)cc12 [US20230312550, Example 39]")
"4.9e+06"
>>> test_value("CC1(C)CN(c2ccc3nccc(C(=O)NCC(=O)N4CSC[C@H]4C#N)c3c2)CCO1 [US20230312550, Example 88]")
"4.2e+06"
>>> test_value("N#C[C@@H]1CSCN1C(=O)CNC(=O)c1ccnc2ccc(N3CC4CCCC4C3)cc12 (some centres not stated) [US20230312550, Example 53]")
680000
>>> test_value("N#C[C@@H]1CSCN1C(=O)CNC(=O)c1ccnc2ccc(N3CCOC4(CCOCC4)C3)cc12 [US20230312550, Example 99]")
"2.1e+06"
>>> test_value("Cc1cc(C(F)(F)F)nn1-c1ccc2nccc(C(=O)NCC(=O)N3CSC[C@H]3C#N)c2c1 [US20230312550, Example 116]")
"7.9e+06"
>>> test_value("COC[C@@H]1[C@@H](C)OCCN1c1ccc2nccc(C(=O)NCC(=O)N3CSC[C@H]3C#N)c2c1 [US20230312550, Example 97]")
690000
>>> test_value("N#C[C@@H]1CSCN1C(=O)CNC(=O)c1ccnc2ccc(N3CCC[C@H]3C3CC3)cc12 [US20230312550, Example 200]")
"2.5e+06"
>>> test_value("C[C@H]1CCN(c2ccc3nccc(C(=O)NCC(=O)N4CSC[C@H]4C#N)c3c2)C1 [US20230312550, Example 54]")
"6.2e+06"
>>> test_value("N#C[C@@H]1CSCN1C(=O)CNC(=O)c1ccnc2ccc(N3CC(N4CCOCC4)C3)cc12 [US20230312550, Example 122]")
"1.3e+06"
